# System Under Test: human EP2 (PTGER2) (Homo sapiens)
# Construct: Cayman Chemical (Human EP2 Reporter Assay Kit)
# Measurement Notes: EP2 antagonist assay (HEK-293 CNG membrane potential cAMP assay / 293T SEAP reporter assay, PGE2-stimulated)
# Particulars: EP2 antagonist activity; concentration for 50% inhibition of signal compared to DMSO
// reported IC50 for each item listed

Given item C[C@H](NC(=O)c1cc(-c2cc(F)cc(F)c2)cc2ccn(Cc3ccc(-c4ccc(F)cc4)cc3)c12)c1ccc(C(=O)O)cc1 [Example 214] , the value recorded as its IC50 is < 100 nM

Given item C[C@H](NC(=O)c1cc(-c2ccc(F)cc2)cc2cnn(Cc3ccc(-c4ccccc4)cc3)c12)c1ccc(C(=O)O)cc1 [Example 199] , the value recorded as its IC50 is < 100 nM

Given item O=C(O)c1ccc(CNC(=O)c2cc(-c3ccccc3)cc3ccn(Cc4cccc(C(F)(F)F)c4)c23)cc1 [Example 122] , the value recorded as its IC50 is < 100 nM

Given item O=C(O)c1ccc(C2(NC(=O)c3ccc(-c4ccc(F)c(F)c4)c4ccn(Cc5ccc(C(F)(F)F)cc5)c34)CC2)cc1 [Example 38] , the value recorded as its IC50 is ≥ 1000 nM

Given item O=C(O)c1ccc(C2(NC(=O)c3cc(-c4ccccc4)cc4ccn(Cc5ccc(C(F)(F)F)cc5)c34)CC2)cc1 [Example 6] , the value recorded as its IC50 is 100 to 1000 nM

***
Given item O=C(O)c1ccc(CNC(=O)c2cc(-c3ccncc3)cc3ccn(Cc4ccc(C(F)(F)F)cc4)c23)cc1 [Example 80] , the value recorded as its IC50 is < 100 nM

Given item O=C(O)c1ccc(CNC(=O)c2ccc(Nc3ccccc3)c3ccn(Cc4ccc5ccccc5n4)c23)cc1 [Example 153] , the value recorded as its IC50 is < 100 nM

Given item O=C(O)c1ccc(C2(NC(=O)c3ccc(Nc4ccc(F)c(Cl)c4)c4ccn(Cc5ccc(C(F)(F)F)cc5)c34)CC2)cc1 [Example 65] , the value recorded as its IC50 is 100 to 1000 nM

Given item C[C@H](NC(=O)c1cc(-c2cc(F)cc(F)c2)cc2cnn(Cc3ccc(-c4ccc(F)cc4)cc3)c12)c1ccc(C(=O)O)cc1 [Example 204] , the value recorded as its IC50 is < 100 nM

Given item O=C(O)c1ccc(CNC(=O)c2cc(-c3ccccc3)cc3cnn(Cc4ccc(C(F)(F)F)cc4)c23)cc1 [Example 97] , the value recorded as its IC50 is < 100 nM

Given item O=C(O)c1ccc(CNC(=O)c2cc(-c3cc(F)cc(F)c3)cc3cnn(Cc4ccc(-c5ccccc5)cc4)c23)cc1 [Example 192] , the value recorded as its IC50 is < 100 nM

Given item O=C(O)c1ccc(C2(NC(=O)c3cc(-c4ccc(F)cc4)cc4ccn(Cc5ccc(C(F)(F)F)cc5)c34)CC2)cc1 [Example 5] , the value recorded as its IC50 is 100 to 1000 nM

Given item N#Cc1cccc(-c2cc(C(=O)NC3CC4(C3)CC(C(=O)O)C4)c3c(Sc4ccc(C(F)(F)F)cc4)c[nH]c3c2)c1 (racemic) [Example 114] , the value recorded as its IC50 is < 100 nM

Given item C[C@H](NC(=O)c1cc(-c2ccc(F)cc2)cc2ccn(Cc3ccc(-c4ccc(F)cc4)cc3)c12)c1ccc(C(=O)O)cc1 [Example 213] , the value recorded as its IC50 is < 100 nM

Given item O=C(O)c1ccc(CNC(=O)c2cc(-c3ccc(F)cc3)cc3cnn(Cc4ccc5ccccc5c4)c23)cc1 [Example 166] , the value recorded as its IC50 is < 100 nM

Given item Cn1cc(Sc2ccc(C(F)(F)F)cc2)c2c(C(=O)NCc3ccc(C(=O)O)cc3)cc(-c3cccc(C(N)=O)c3)cc21 [Example 121] , the value recorded as its IC50 is 100 to 1000 nM

Given item C[C@H](NC(=O)c1cc(-c2ccccc2)cc2ccn(Cc3ccc(C(F)(F)F)cc3)c12)c1ccc(C(=O)O)cc1 [Example 51] , the value recorded as its IC50 is < 100 nM

----------
# System Under Test: human EP2 (PTGER2) (Homo sapiens)
# Construct: Cayman Chemical (Human EP2 Reporter Assay Kit)
# Measurement Notes: EP2 antagonist assay (HEK-293 CNG membrane potential cAMP assay / 293T SEAP reporter assay, PGE2-stimulated)
# Particulars: EP2 antagonist activity; concentration for 50% inhibition of signal compared to DMSO
// reported IC50 for each item listed

Given item O=C(O)c1ccc(CNC(=O)c2ccc(-c3ccc(F)cc3)c3ccn(Cc4ccc(C(F)(F)F)cc4)c23)cc1 [Example 25] , the value recorded as its IC50 is ≥ 1 µM

***
Given item C[C@H](NC(=O)c1cc(-c2ccc(F)c(F)c2)cc2ccn(Cc3ccc4ccccc4c3)c12)c1ccc(C(=O)O)cc1 [Example 217] , the value recorded as its IC50 is < 0.1 µM

Given item O=C(O)c1ccc(CNC(=O)c2ccc(-c3cc(F)cc(F)c3)c3ccn(Cc4ccc(C(F)(F)F)cc4)c23)cc1 [Example 27] , the value recorded as its IC50 is ≥ 1 µM

Given item C[C@@H](NC(=O)c1ccc(-c2ccc(F)cc2)c2ccn(Cc3ccc(C(F)(F)F)cc3)c12)c1ccc(C(=O)O)cc1 [Example 35] , the value recorded as its IC50 is ≥ 1 µM

----------
// reported pIC50 for each item listed
# System Under Test: human EP2 (PTGER2) (Homo sapiens, UniProt P43116)
# Construct: Cayman Chemical (Human EP2 Reporter Assay Kit)
# Sequence (P43116 whole entry): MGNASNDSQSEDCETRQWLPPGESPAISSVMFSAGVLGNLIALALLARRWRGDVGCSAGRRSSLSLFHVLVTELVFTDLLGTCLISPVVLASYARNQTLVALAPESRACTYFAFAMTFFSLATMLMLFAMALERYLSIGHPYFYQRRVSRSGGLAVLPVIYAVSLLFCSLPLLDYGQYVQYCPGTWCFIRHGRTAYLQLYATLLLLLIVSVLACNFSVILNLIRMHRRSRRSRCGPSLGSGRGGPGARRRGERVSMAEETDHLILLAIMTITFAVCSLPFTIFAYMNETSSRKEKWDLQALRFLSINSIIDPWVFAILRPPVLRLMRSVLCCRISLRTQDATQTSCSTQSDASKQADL
# Measurement Notes: EP2 antagonist assay (HEK-293 CNG membrane potential cAMP assay / 293T SEAP reporter assay, PGE2-stimulated)
# Particulars: EP2 antagonist activity; concentration for 50% inhibition of signal compared to DMSO
pIC50: −log10 of the molar value.

# annotated cases, reported pIC50 shown
Given item `N#Cc1cccc(-c2cc(C(=O)NC34CC(CC(=O)O)(C3)C4)c3c(Sc4ccc(C(F)(F)F)cc4)c[nH]c3c2)c1` , the value recorded as its pIC50 is 6.00 to 7.00

Given item `O=C(O)c1ccc(CNC(=O)c2cc(-c3cc(F)cc(F)c3)cc3ccn(Cc4ccc(-c5ccc(F)cc5)cc4)c23)cc1` , the value recorded as its pIC50 is > 7.00

Given item `O=C(O)c1ccc(CNC(=O)c2cc(Nc3ccccc3)cc3ccn(Cc4ccc(C(F)(F)F)cc4)c23)cc1` , the value recorded as its pIC50 is ≤ 6.00

Consider now this further compound.
Given item `C[C@@H](NC(=O)c1ccc(-c2ccc(F)c(F)c2)c2ccn(Cc3ccc(C(F)(F)F)cc3)c12)c1ccc(C(=O)O)cc1` , the value recorded as its pIC50 is ≤ 6.00

----------
# System Under Test: human EP2 (PTGER2) (Homo sapiens)
# Construct: Cayman Chemical (Human EP2 Reporter Assay Kit)
# Measurement Notes: EP2 antagonist assay (HEK-293 CNG membrane potential cAMP assay / 293T SEAP reporter assay, PGE2-stimulated)
# Particulars: EP2 antagonist activity; concentration for 50% inhibition of signal compared to DMSO
pIC50: −log10 of the molar value.
Quantity Kind: pIC50

Given item O=C(O)c1ccc(CNC(=O)c2cc(-c3ccc(F)cc3)cc3ccn(Cc4ccc(-c5ccccc5)cc4)c23)cc1 [Example 148] , the value recorded as its pIC50 is > 7.00

Given item Cn1cc(Sc2ccc(C(F)(F)F)cc2)c2c(C(=O)NCc3ccc(C(=O)O)cc3)cc(-c3cccc(C#N)c3)cc21 [Example 120] , the value recorded as its pIC50 is 6.00 to 7.00

Consider now this further compound.
Given item O=C(O)c1ccc(C2(NC(=O)c3ccc(Nc4ccc(F)cc4)c4ccn(Cc5ccc(C(F)(F)F)cc5)c34)CC2)cc1 [Example 64] , the value recorded as its pIC50 is > 7.00

src = patent US20250179017A1
